Catalogue of self-splicing fitness (ln) values
Experimental protocol: self-splicing fitness, log relative to wild type (ln ratio); higher = more splicing; Tetrahymena group I intron in knt gene, E. coli kanamycin selection, DiMSum; sequences stand for … in CUCUCU…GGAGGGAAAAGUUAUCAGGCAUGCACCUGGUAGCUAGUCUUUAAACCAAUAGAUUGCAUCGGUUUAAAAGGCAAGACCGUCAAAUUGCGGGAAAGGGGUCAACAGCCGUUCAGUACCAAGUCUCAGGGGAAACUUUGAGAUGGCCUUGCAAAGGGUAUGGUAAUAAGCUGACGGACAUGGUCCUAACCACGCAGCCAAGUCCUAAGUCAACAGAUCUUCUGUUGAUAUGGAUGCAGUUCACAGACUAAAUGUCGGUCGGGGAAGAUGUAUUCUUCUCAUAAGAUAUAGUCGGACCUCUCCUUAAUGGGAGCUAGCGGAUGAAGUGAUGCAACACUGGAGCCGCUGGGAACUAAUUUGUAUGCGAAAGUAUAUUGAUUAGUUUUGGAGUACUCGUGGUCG;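 note: selection with 25 µg/mL kanamycin versus none on LB agar overnight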
Test conditions: 37 °C
Please give the numeric answer without any surrounding text.

AGGUAGCAAUAUUACGACAG	-0.956
AUAGAGCAAUAUUACGGGAA	-2.46
GUUUAGCAAUAUUACGGUGG	-2.33
GUGAAGCAAUAUUACGUGUA	-0.878
UCCAAGCAAUAUUACGCGCU	-1.52

Query block: What self-splicing fitness (ln) value was documented for this sequence, `AGCCAGCAAUAUUACGCGAC` ?
Result block: -1.78

Query block: Requested read-out: self-splicing fitness (ln). Entry: `CGUGAGCAAUAUUACGGACA`
Result block: -0.944

Query block: GET /values?readout=self-splicing fitness (ln)&item= `UGAUAGCAAUAUUACGUCCA`
Result block: 0.154

---

Experimental protocol: self-splicing fitness, log relative to wild type (ln ratio); higher = more splicing; Tetrahymena group I intron in knt gene, E. coli kanamycin selection, DiMSum; sequences stand for … in CUCUCU…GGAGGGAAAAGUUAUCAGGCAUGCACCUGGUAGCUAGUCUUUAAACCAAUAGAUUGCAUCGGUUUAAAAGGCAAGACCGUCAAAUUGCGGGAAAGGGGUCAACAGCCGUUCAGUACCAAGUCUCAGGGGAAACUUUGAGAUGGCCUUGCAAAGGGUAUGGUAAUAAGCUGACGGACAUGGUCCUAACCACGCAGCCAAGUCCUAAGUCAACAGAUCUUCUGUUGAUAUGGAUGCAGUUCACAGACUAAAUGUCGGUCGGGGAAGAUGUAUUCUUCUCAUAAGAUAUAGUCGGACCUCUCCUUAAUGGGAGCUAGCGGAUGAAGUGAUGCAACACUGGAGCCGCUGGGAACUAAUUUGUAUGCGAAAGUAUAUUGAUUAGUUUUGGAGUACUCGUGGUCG
Test conditions: 37 °C
Where self-splicing fitness (ln) equals or exceeds -0.9, the correct label is 1; where it does not, the label is -1.

The following sequences have reported results that may help.
AGCUAGCAAUAUUACGUCAA	-1
AUUAAGCAAUAUUACGGGGC	-1
UGUCAGCAAUAUUACGCUGC	-1

Query block: State whether the measured self-splicing fitness (ln) reaches -0.9, counting equality as reaching it, for `AUACAGCAAUAUUACGCGUC`
Result block: -1

Query block: State whether the measured self-splicing fitness (ln) reaches -0.9, counting equality as reaching it, for `CCUAAGCAAUAUUACGGACA`
Result block: -1

Query block: Does the reported self-splicing fitness (ln) for `UGGAAGCAAUAUUACGGGGC` fall at or above the -0.9 mark?
Result block: -1

Query block: # check: self-splicing fitness (ln) of `AGUGAGCAAUAUUACGACAA` is greater than or equal to -0.9
Result block: 1

Query block: # check: self-splicing fitness (ln) of `CAUAAGCAAUAUUACGUGAG` is greater than or equal to -0.9
Result block: 1

Query block: Please tell me: is the sequence `GCGAAGCAAUAUUACGAGAU` at or over -0.9 in terms of self-splicing fitness (ln)?
Result block: -1

Query block: Answer whether self-splicing fitness (ln) of `UUUAAGCAAUAUUACGGGCU` is greater than or equal to -0.9.
Result block: -1

Query block: Item `UUUCAGCAAUAUUACGCAAA` with self-splicing fitness (ln) of -0.9 or above?
Result block: 1

Query block: Hi, just wondering whether `GGAAAGCAAUAUUACGUAUC` shows self-splicing fitness (ln) of -0.9 or higher.
Result block: -1

Query block: Please indicate if the recorded self-splicing fitness (ln) for `CUUUAGCAAUAUUACGUAAU` meets or exceeds -0.9.
Result block: -1

Query block: self-splicing fitness (ln) >= -0.9 for `UAGAAGCAAUAUUACGACGC` ?
Result block: -1
